Hey, just so you know, these numbers are from PubChem BioAssay (NCI).

# Tested on: HCC-2998 colon
# test name: NCI tumour cell line growth inhibition, 48 h; in the data active = GI50 below about 0.43 µM; inactive = the rest
Please reply with one of these outcomes: YES (active), NO (inactive)

stdin: Assay outcome for C/C=C(/C)C(=O)OC1C=C(CO)C(=O)C(OC(=O)C2(C)OC2C)C1C(C)C (stereo unspecified) : what was it?
stdout: NO

stdin: Assay outcome for Cc1ccc(/C=C(/C#N)n2nnc3cccc(F)c32)cc1 : what was it?
stdout: NO

stdin: Assay outcome for [CH3][Ge]([CH3])([CH2]CC#N)[S]c1ccccc1 : what was it?
stdout: YES

stdin: Assay outcome for N#C/C(=C\c1ccc(O)c(O)c1)C(=O)NCc1cccc(C(F)(F)F)c1 : what was it?
stdout: NO

stdin: Assay outcome for COc1ccc(-c2cc(-c3ccc(Cl)cc3)nc(SCCCC(=O)NO)n2)cc1OC : what was it?
stdout: NO

stdin: Assay outcome for C=CCc1cc(O)ccc1O : what was it?
stdout: NO

====

# Test system: SNB-19 CNS
# test name: NCI tumour cell line growth inhibition, 48 h; in the data active = GI50 below about 0.43 µM; inactive = the rest
Please reply with one of these outcomes: TRUE (active), FALSE (inactive)

stdin: Assay outcome for N#Cc1c(-c2ccccc2)nc(SCC(O)CN2CCOCC2)nc1N1CCOCC1 (stereo not drawn) : what was it?
stdout: FALSE

stdin: Assay outcome for CC(C)N(CCNc1nc(C(Cl)(Cl)Cl)nc2cc(Cl)ccc12)C(C)C : what was it?
stdout: FALSE

stdin: Assay outcome for [pH]1p2[pH]p3p1p3[pH]2.c1cc[c]([Ge]([c]2ccccc2)[c]2ccccc2)cc1.c1cc[c]([Ge]([c]2ccccc2)[c]2ccccc2)cc1.c1cc[c]([Ge]([c]2ccccc2)[c]2ccccc2)cc1 : what was it?
stdout: FALSE

stdin: Assay outcome for CN(C)C/C=C/C(=O)Nc1ccc(C(=O)Nc2cccc(Nc3ncc(Cl)c(-c4c[nH]c5ccccc45)n3)c2)cc1 : what was it?
stdout: TRUE

stdin: Assay outcome for C/C=C(/C)C(=O)OC1C=C(CO)C(=O)C(OC(=O)C2(C)OC2C)C1C(C)C (stereo not drawn) : what was it?
stdout: FALSE

stdin: Assay outcome for CCN1C[C@@H](C)n2c(c(O)c3c(=O)n(Cc4ccc(F)c(Cl)c4)nc(C(=O)NC)c32)C1=O : what was it?
stdout: FALSE

stdin: Assay outcome for Cn1ccc(S(=O)(=O)N2CCC[C@H](Nc3nccc(-c4c(-c5cccc(O)c5)nc5occn45)n3)C2)n1 : what was it?
stdout: FALSE

stdin: Assay outcome for CC(=O)NC(CCc1ccc(Cl)c(Cl)c1)c1cccc(O)c(=O)c1 (stereo not drawn) : what was it?
stdout: FALSE

====

Please provide measured TGI for the entries that follow.
# System: UO-31 renal
# test name: NCI tumour cell line growth inhibition, 48 h
// return numeric value only (unit: µM, not printed)

stdin: Name the recorded TGI for O=[N+]([O-])c1ccc(C2=NOC(c3ccccc3)N2C23CC4CC(CC(C4)C2)C3)cc1 (stereo not given) .
stdout: 67.3

stdin: Name the recorded TGI for O=C(Cn1c2ccc(Br)cc2c2nc3ccccc3nc21)NNC(=O)NC1CCCCC1 .
stdout: 8.09

stdin: Name the recorded TGI for Cc1cccc2c(N)c3cccc(C(=O)NCCNCCN)c3nc12 .
stdout: 51.5

stdin: Name the recorded TGI for CC1(C)CCC2(C(=O)O)C(O)CC3(C)C(=CCC4C5(C)CCC(OC6OCC(O)C(O)C6OC6OCC(O)C(O)C6OC6OCC(O)C(OC7OC(CO)C(O)C(O)C7O)C6O)C(C)(C)C5CCC43C)C2C1 (stereo not given) .
stdout: 35.3

stdin: Name the recorded TGI for COc1cc(C2C=C(C)N=C3SC=C(C)N32)cc(OC)c1OC (stereo not given) .
stdout: 2.47
